Values from patent US9856225B2

- System: Staphylococcus aureus (ATCC 25923) established biofilm
- test method notes: Biofilm dispersion, crystal violet staining
- Type: cell-based
- experimental context: Staphylococcus aureus, ATCC25923, 24 h, read-out: Biofilm Dispersion EC50
recorded endpoint: EC50 (µM)
The reply should be a number in µM, with the unit left off.

Lookup: // fetch Staphylococcus aureus (ATCC 25923) established biofilm EC50 for Oc1c(Br)cc(Br)c2nc3ccccc3nc12
Found: 29.3
